- targetOrTestSystem: T1, AFP158/HLA-A*02:01 complex presented on cells (human)
- T1 construct: the cell line used is named under assay in each row; also called AFP158-loaded T2 cells; human AFP158-loaded T2 cells
- runDescription: FACS of scFv phage on AFP158 peptide-loaded T2 cells, anti-M13 mAb and R-PE anti-mouse IgG
parameterMeasured: binding result

#50 (scFv, V domains shown, not shown: large carriers; small tags and cut ends, also called Clone 50; AFP158/HLA-A*02:01-specific scFv phage clone #50; copies: 1 + 1) VH: QVQLQESGPGLVKPSGTLSLTCAVSGGSISSSNWWSWVRQPPGKGLEWIGEIYHSGSTNYNPSLKSRVTISVDKSKNQFSLKLSSVTAADTAVYYCATGYGGYFDYWGQGTLVTVSS VL: QSVLTQPPSVSVAPGKTARITCGGNNIGSKSVHWYQQKPGQAPVLVIYYDSDRPSGIPERFSGSNSGNTATLTISRVEAGDEADYYCQVWDSSSDHVVFGGGTKLTVL    binds
AFP158/HLA-A*02:01-specific scFv phage clone #48 (scFv, V domains shown) VH: EVQLVESGGGLVQPGRSLRLSCAASGFTFDDYAMHWVRQAPGKGLEWVSGISWNSGRIGYADSVKGRFTISRDNAKNSLYLQMNSLRAEDTAVYYCARADDYGAPYYYYGMDVWGQGTTVTVSS VL: QSVLTQPPSVSGAPGQRVTISCTGSSSNIGAGYDVHWYQQLPGTAPKLLIYGNSNRPSGVPDRFSGSKSGTSASLAITGLQAEDEADYYCQSYDSSLSGSVFGTGTKVTVLG    binds
AFP158/HLA-A*02:01-specific scFv phage clone #33 (scFv, V domains shown) VH: QVQLQQSGPGLVKPSQTLSLTCAISGDSVSSNSAAWNWIRQSPSRGLEWLGRTYYRSKWYNDYAVSVKSRITINPDTSKNQFSLQLNSVTPEDTAVYYCARGSYYSGRYDAWGQGTLVTVSS VL: NFMLTQPHSVSESPGKTVTISCTRSSGSIASNYVQWYQQRPGSSPTTVIYEDNQRPSGVPDRFSGSIDSSSNSASLTISGLKTEDEADYYCQSYDSSTVVFGGGTKLTVLG    binds

src = patent US20180208658A1
